Reference for the values: PubChem BioAssay

experimentalDetails: S. cerevisiae growth modulation with rapamycin, primary screen, strain BY4716, OD600, 96 h (AID 1091); note: test concentration not given here
measurementSetup: higher = more signal, called active from +8 up or from −8 down
Quick rule: z-score of at least -0.6 means true (1), below that means false (0).

compound: O=C(NCCCCCNC(=O)/C(Cc1ccccc1)=N/O)OCc1ccccc1
classAssignment: false (0)

compound: COCCOC(=O)N1C(=O)[C@@]2(c3cc(C#CC4=CCCCC4)ccc31)[C@H](c1ccccc1OCCO)N1[C@H](c3ccccc3)[C@H](c3ccccc3)OC(=O)[C@H]1[C@@H]2C(=O)N1CCCCCCC1
classAssignment: true (1)

compound: COC(=O)[C@@]1(Cc2ccc(F)cc2)[C@H]2c3cc(C(=O)N(C)C)n(CCc4ccc(O)c(OC)c4)c3C[C@H]2CN1C(=O)c1ccccc1
classAssignment: true (1)

compound: CC(C)C[C@@H]1NC(=O)[C@@H]2C[C@H](C(=O)NCCCCCN)[C@H](c3ccc(O)cc3)N2C1=O
classAssignment: true (1)

compound: Cc1cc(C)c(C(O)C2C=CC3C(=O)NC(=O)C3N2Nc2ccc(Cl)cc2Cl)c(C)c1 (stereo not given)
classAssignment: true (1)

compound: COCCOC(=O)N1C(=O)[C@@]2(c3cc(C#CCNC(N)=O)ccc31)[C@H](C(=O)N1CCc3cc(OC)c(OC)cc3C1)[C@H]1C(=O)O[C@H](c3ccccc3)[C@H](c3ccccc3)N1[C@@H]2c1ccccc1OCCO
classAssignment: true (1)

compound: CCOc1cc(C(O)C2C=CC3C(=O)N(c4ccccc4)C(=O)C3N2Nc2ccc(C#N)cc2)ccc1O (stereo not given)
classAssignment: true (1)

compound: [N-]=[N+]=Nc1ccccc1[C@H]1OC(c2ccc(OCCCO)cc2)=N[C@@]1(Cc1ccccc1)C(=O)N1CCCCC1
classAssignment: true (1)

compound: CN(C)CCCNC(=O)[C@@]1(c2ccc([N+](=O)[O-])cc2)CC(=O)N(CC23CC4CC(CC(C4)C2)C3)[C@@H]1c1ccc(CO)cc1I
classAssignment: false (0)

compound: OCCCC1=CC(c2ccc(CN3CCCC3)cc2)N(Cc2sc3ccccc3c2Cl)CC1 (stereo not given)
classAssignment: false (0)

compound: O=C1OCCC=C[C@H]2OC34C=CCN(Cn5nnc6ccccc65)C(=O)[C@H]3N(CCCCCCO)C(=O)[C@@H]4C12 (stereo not given in full)
classAssignment: true (1)

compound: C=CC[C@]1(C(=O)O)COC(c2ccc(OCCCO)cc2)=N1
classAssignment: true (1)

compound: C=CCN1C(=O)[C@@]2(O[C@@H](CCn3cc([C@H](O)c4ccccc4)nn3)[C@H]([Si](C)(C)c3ccc(OC)cc3)[C@H]2C)c2cc(N3CCC3=O)ccc21
classAssignment: true (1)

compound: C=CC1c2cc(O)c(OC)cc2CCN1Cc1cc2c(cc1Br)OCO2 (stereo not given)
classAssignment: false (0)

compound: COc1cc2c(cc1O)C(C)N(Cc1ccc([N+](=O)[O-])o1)CC2 (stereo not given)
classAssignment: false (0)

----------
Reported composite z-score values are given for each entry in this list.
Tested on: PRMT1 (protein arginine N-methyltransferase 1)
experimentalDetails: PRMT1 binders on small-molecule microarrays, primary screen, biochemical, small-molecule microarray, 635 nm fluorescence (AID 1088);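 note: binding of Prmt1 protein to compounds spotted on small-molecule microarray slides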
measurementSetup: small-molecule microarray binding, higher = more signal

molecule: C=C(COC)C(=O)CC[C@@H](OC(=O)c1cccnc1)c1ccc(OCCO)cc1
testedSystem: PRMT1 (protein arginine N-methyltransferase 1)
composite z-score: 1.2
--
molecule: COCCOC(=O)N1C(=O)[C@@]2(c3cc(C#CC4=CCCCC4)ccc31)[C@H](c1ccc(O)cc1)N1[C@H](c3ccccc3)[C@H](c3ccccc3)OC(=O)[C@H]1[C@@H]2C(=O)N1CCN(c2ncccn2)CC1
testedSystem: PRMT1 (protein arginine N-methyltransferase 1)
composite z-score: 0.234
--
molecule: COc1ccc(-c2nc(-c3ccccc3)c3c(c2C)CO[Si]3(C(C)C)C(C)C)cn1
testedSystem: PRMT1 (protein arginine N-methyltransferase 1)
composite z-score: 0.569
--
molecule: O=C1c2ccccc2[C@](Cc2ccccc2I)(C(=O)NCC(F)(F)F)[C@H](c2ccc(CO)cc2)N1C1CCCCC1
testedSystem: PRMT1 (protein arginine N-methyltransferase 1)
composite z-score: 1.56
--
molecule: CC1=C[C@@]2(CO)C(=O)[C@]3(CO3)[C@@H]1[C@H]1[C@]2(C)C=C(CO)C(=O)[C@]12CO2
testedSystem: PRMT1 (protein arginine N-methyltransferase 1)
composite z-score: 0.295
--
molecule: Cc1ccc(S[C@]2(C(=O)NCC(F)(F)F)CC(=O)N(Cc3ccccc3C(F)(F)F)[C@@H]2c2ccc(CO)cc2I)cc1
testedSystem: PRMT1 (protein arginine N-methyltransferase 1)
composite z-score: -0.987
--
molecule: O=C(NCC(F)(F)F)[C@@H]1c2ccccc2C(=O)N(Cc2ccc(OC(F)(F)F)cc2)[C@H]1c1ccc(CO)cc1
testedSystem: PRMT1 (protein arginine N-methyltransferase 1)
composite z-score: 1.53
--
molecule: COCCOC(=O)N1C(=O)[C@@]2(c3cc(C#CC4=CCCCC4)ccc31)[C@H](c1ccccc1OCCO)N1[C@H](c3ccccc3)[C@H](c3ccccc3)OC(=O)[C@H]1[C@@H]2C(=O)N1CCCCCCC1
testedSystem: PRMT1 (protein arginine N-methyltransferase 1)
composite z-score: 1.57
--
molecule: C[C@@H]1ON(c2ccc(C(=O)OC(C)(C)C)cc2)[C@H](c2ccc(O)cc2)[C@H]1C(=O)N1C(=O)OC[C@H]1Cc1ccccc1
testedSystem: PRMT1 (protein arginine N-methyltransferase 1)
composite z-score: 1.56
--
molecule: CC(=O)NCCCC[C@@H]1NC(=O)[C@@H]2C[C@H](C(=O)NCCCC[N+](C)(C)C)[C@H](c3ccc(O)cc3)N2C1=O
testedSystem: PRMT1 (protein arginine N-methyltransferase 1)
composite z-score: 1.54
--
molecule: CN(C)C(=O)C1N=C(c2ccc(OCCCO)cc2)N(c2ccccc2)O1 (stereo not given)
testedSystem: PRMT1 (protein arginine N-methyltransferase 1)
composite z-score: 1.56
--
molecule: CO[C@H]1O[C@H](CO)[C@@H](OC(=O)Nc2ccc3c(c2)OCO3)[C@H](OC(=O)c2cc3ccccc3[nH]2)[C@H]1OC(=O)c1cc2ccccc2[nH]1
testedSystem: PRMT1 (protein arginine N-methyltransferase 1)
composite z-score: 0.391
--
molecule: O=C(NCc1ccccc1)[C@@H]1c2ccccc2C(=O)N(Cc2ccccc2C(F)(F)F)[C@H]1c1ccc(CO)cc1
testedSystem: PRMT1 (protein arginine N-methyltransferase 1)
composite z-score: 1.45
--
molecule: COC(=O)c1c(CC[C@@H](CO)NC(=O)N2CCC[C@H]2Cn2cc(Cc3ccccc3)nn2)oc(C(C)=O)c1C(=O)OC
testedSystem: PRMT1 (protein arginine N-methyltransferase 1)
composite z-score: 1.28
--
molecule: COC(=O)c1c2oc(c1C(=O)OC)C(=O)N(C)Cc1cn(nn1)C[C@H](Cc1ccccc1)NC(=O)N[C@H](CO)CC2
testedSystem: PRMT1 (protein arginine N-methyltransferase 1)
composite z-score: -0.929
--
molecule: C=CCN1C(=O)[C@@]2(O[C@@H](CCn3cc([C@H](O)c4ccccc4)nn3)[C@H]([Si](C)(C)c3ccc(OC)cc3)[C@H]2C)c2cc(N3CCC3=O)ccc21
testedSystem: PRMT1 (protein arginine N-methyltransferase 1)
composite z-score: 0.467
--
molecule: C=CCC(OC(C)=O)[C@@H]1[C@@H](N(Cc2cccc3ccccc23)C(=O)Cc2ccc(F)cc2)c2cc(OCCCO)ccc2N1C(=O)c1ccc2ccccc2n1 (stereo not given in full)
testedSystem: PRMT1 (protein arginine N-methyltransferase 1)
composite z-score: -0.293
--
molecule: COc1cccc(/C=C/C=O)c1
testedSystem: PRMT1 (protein arginine N-methyltransferase 1)
composite z-score: 0.247
--
molecule: COc1ccccc1CN1C(=O)c2ccccc2[C@@]2(Cc3ccccc3N(CC(F)(F)F)C2=O)[C@@H]1c1ccc(CO)cc1
testedSystem: PRMT1 (protein arginine N-methyltransferase 1)
composite z-score: 0.955
--
molecule: C=CCNC(=O)[C@@H]1[C@H]2C(=O)O[C@H](c3ccccc3)[C@H](c3ccccc3)N2[C@H](c2ccc(O)cc2)[C@@]12C(=O)N(C(=O)OCCOC)c1ccc(C#CC3(O)CCCCCC3)cc12
testedSystem: PRMT1 (protein arginine N-methyltransferase 1)
composite z-score: -0.14
--
molecule: O=C(NCC(F)(F)F)[C@@H]1c2ccccc2C(=O)N(Cc2ccccc2C(F)(F)F)[C@H]1c1ccc(CO)cc1
testedSystem: PRMT1 (protein arginine N-methyltransferase 1)
composite z-score: 0.928
--
molecule: CN(C)CCCNC(=O)[C@@]1(c2ccc([N+](=O)[O-])cc2)CC(=O)N(CC23CC4CC(CC(C4)C2)C3)[C@@H]1c1ccc(CO)cc1I
testedSystem: PRMT1 (protein arginine N-methyltransferase 1)
composite z-score: 1.53
--
molecule: CCOC(=O)C[C@H]1[C@H](OC(=O)c2ccc(C(=O)c3ccccc3)cc2)[C@@H](NC(=O)Cc2ccc(OC)cc2)c2cc(OCCCO)ccc2N1C(=O)c1ccccc1
testedSystem: PRMT1 (protein arginine N-methyltransferase 1)
composite z-score: 0.139
--
molecule: COC(=O)c1c2oc(c1C(=O)OC)C(=O)N(Cc1ccccc1)Cc1cn(nn1)C[C@H](Cc1ccccc1)NC(=O)N[C@H](CO)CC2
testedSystem: PRMT1 (protein arginine N-methyltransferase 1)
composite z-score: 0.707
--
molecule: CCCC[C@@H]1C[C@H]1[C@@H](NC(=O)c1ccccc1)c1ccc(C(F)(F)F)cc1
testedSystem: PRMT1 (protein arginine N-methyltransferase 1)
composite z-score: -0.914
